Molecular target: MAO-B (Rattus norvegicus, UniProt P19643)
Construct: suspension of 1 part by volume of the forebrains of male Wistar rats; from tissue; host or cells: forebrain of male Wistar rats, suspension in potassium phosphate buffer
Sequence (P19643 1-520): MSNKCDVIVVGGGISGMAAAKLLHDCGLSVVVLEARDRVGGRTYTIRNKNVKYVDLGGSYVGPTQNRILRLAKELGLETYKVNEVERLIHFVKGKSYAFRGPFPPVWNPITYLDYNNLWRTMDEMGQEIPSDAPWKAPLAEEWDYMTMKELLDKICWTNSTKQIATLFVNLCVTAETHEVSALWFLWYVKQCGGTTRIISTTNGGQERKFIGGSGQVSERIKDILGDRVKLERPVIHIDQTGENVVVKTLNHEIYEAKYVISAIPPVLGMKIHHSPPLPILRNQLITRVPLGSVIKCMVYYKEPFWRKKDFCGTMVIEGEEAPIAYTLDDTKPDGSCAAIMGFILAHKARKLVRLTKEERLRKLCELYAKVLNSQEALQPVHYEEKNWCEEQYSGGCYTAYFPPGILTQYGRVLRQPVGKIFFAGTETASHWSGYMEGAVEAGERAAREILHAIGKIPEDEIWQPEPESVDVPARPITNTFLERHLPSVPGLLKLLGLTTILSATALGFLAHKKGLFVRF
Test: MAO-B inhibition activity with rat forebrain (14C-PEA substrate)
Assay type: biochemical, rat (male Wistar)
Settings: 10^-6 M, read-out: Inhibiting activity MAO-B (% at 10^-6 M)
# key: entry, value: inhibition at 1 µM

Form field: inhibition at 1 µM recorded for COCC1CN(c2ccc3nc(COCC#N)sc3c2)C(=O)O1 (stereo not drawn) with MAO-B (Rattus norvegicus, UniProt P19643) (enter value)
11%

Form field: inhibition at 1 µM recorded for COC[C@H]1CN(c2ccc3nc(CCCC#N)sc3c2)C(=O)O1 with MAO-B (Rattus norvegicus, UniProt P19643) (enter value)
17%
